testSystem: T1, human IL-36R on cells (human, UniProt Q9HB29 20-575)
T1 sequence (looked up): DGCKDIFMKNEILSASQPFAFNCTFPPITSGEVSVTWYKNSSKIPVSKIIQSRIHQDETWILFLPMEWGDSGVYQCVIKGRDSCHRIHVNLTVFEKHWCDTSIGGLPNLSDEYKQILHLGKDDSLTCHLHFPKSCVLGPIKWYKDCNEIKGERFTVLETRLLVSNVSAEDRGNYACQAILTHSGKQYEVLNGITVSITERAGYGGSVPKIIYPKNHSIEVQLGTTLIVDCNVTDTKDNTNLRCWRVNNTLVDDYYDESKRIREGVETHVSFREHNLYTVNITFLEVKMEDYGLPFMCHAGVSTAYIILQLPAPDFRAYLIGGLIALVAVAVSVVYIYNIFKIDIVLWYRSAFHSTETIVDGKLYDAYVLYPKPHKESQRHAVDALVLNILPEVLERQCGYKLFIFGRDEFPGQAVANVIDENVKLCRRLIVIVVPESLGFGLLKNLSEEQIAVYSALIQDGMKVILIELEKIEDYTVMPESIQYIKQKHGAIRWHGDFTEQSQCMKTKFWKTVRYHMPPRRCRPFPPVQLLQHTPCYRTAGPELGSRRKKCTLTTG
assaySummary: cell-based or functional assay
metric: IC90, pNFκB, human primary keratinocytes (NHK), trun-IL-36g
Field: value (include unit after the number)

- binder: "antibody 33D10 (antibody, V domains shown, Mouse monoclonal from hybridoma; also called 33D10B12; Mouse 33D10) VH: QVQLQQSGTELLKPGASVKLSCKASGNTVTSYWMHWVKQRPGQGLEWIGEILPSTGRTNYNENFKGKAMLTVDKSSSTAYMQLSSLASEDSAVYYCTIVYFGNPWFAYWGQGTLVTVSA VL: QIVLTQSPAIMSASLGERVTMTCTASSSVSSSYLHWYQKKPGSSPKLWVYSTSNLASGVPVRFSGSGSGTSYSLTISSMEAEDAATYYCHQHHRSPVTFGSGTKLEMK"
  readoutValue: "0.8 nM"

Here's the next entry for you.
-- ask I would be grateful if you could share the reported IC90, pNFκB, human primary keratinocytes (NHK), trun-IL-36g for antibody 81B4 (antibody, V domains shown, Mouse monoclonal from hybridoma; also called 81B4E11; Mouse 81B4) VH: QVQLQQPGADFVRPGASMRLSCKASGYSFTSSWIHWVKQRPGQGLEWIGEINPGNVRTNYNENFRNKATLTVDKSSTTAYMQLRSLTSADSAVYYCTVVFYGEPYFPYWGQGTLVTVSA VL: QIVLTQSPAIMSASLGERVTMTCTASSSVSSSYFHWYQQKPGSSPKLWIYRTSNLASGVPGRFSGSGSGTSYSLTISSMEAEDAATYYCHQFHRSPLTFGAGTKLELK .
-- reply 0.5 nM

Origin of values: patent US20200231684A1
